# Tgt: T1, human Claudin18.2 (human)
# T1 construct: also called CLDN18.2
# Assay Text: cell ELISA, Claudin18.2-expressing HEK293T cells
pEC50: −log10 of the molar value.
pEC50 values for the binders below.
Quantity: pEC50

Binder: 196A12B10 (antibody, V domains shown, mouse hybridoma mAb; also called 196Al2B10) VH: QIQWVQSGPELKKPRETVKISCKASGYTFTDYSMHWVKQAPGKGLKWMGWINSETGEATYADDFRGRFALSLETSATTAFLQINSLKNEDTGTYFCARFYYGNSFASWGQGTTLTVSS VL: DIVMTQFPSSLTVTAGEKVTMTCKSSQSLLNGGNQKNYLTWYQQKPGLPPKLLIYWASTRESGVPDRFTGSGSGTEFTLTISSVQAEDLAVYYCQNNYYFPLTFGAGTKLELK
Observed: 8.75
--
Binder: 407A8G10 (antibody, V domains shown, mouse hybridoma mAb) VH: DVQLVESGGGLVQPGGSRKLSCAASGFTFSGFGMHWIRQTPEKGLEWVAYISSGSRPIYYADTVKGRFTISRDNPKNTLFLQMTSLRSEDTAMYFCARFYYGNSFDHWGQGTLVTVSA VL: DIVMTQSPSFLTVTAGEKVTMSCRSSQSLLNSGNQRNYLTWYQQKPGQPPKLLIYWASTRESGVPDRFTGSGSGTDFALTISSVQAEDLALYYCQNAYSFPLTFGAGTKLELK
Observed: 8.67
--
Binder: 254A8D5 (antibody, V domains shown, mouse hybridoma mAb) VH: EVMLVESGGGLVKPGGSLKLSCAASGFTFSSYTVSWVRQTPEKRLEWVATSIVGSTYTYFPDSVKGRFTISRDFAKNTLFLQMSSLRSEDTAMYYCSRLGRGNAMDYWGQGTSVSVSS VL: DIVMTQSPSSLTVTAGEKVTLNCRSSQSLLNSGNQKNYLTWYQQKPGQPPKLLIYWASTRESGVPDRFTGSGSGTDFTLTISSVQADDLAVYYCQNGYSYPFTFGSGTKLEIK
Observed: 9.01
